Data provenance: patent US20250115598A1

For each record, write down the corresponding pIC50.
test system: Immortalised Mouse Dermal Fibroblasts (MDFs); assay: Cellular assay: inhibition of TSI induced necroptosis, CellTitre-Glo viability; conditions: Mus musculus, Fibroblast; MDF, 3 hours TSI cocktail, Table 27; read-out: Inhibition of TSI-induced necroptosis (IC50 cell-based assay) in MDF
pIC50: −log10 of the molar value.

Query: Looking for the measured pIC50 of Cc1ncsc1-c1ccc(CNC(=O)[C@@H]2C[C@@H](O)CN2C(=O)[C@@H](NC(=O)C2(F)CC2)C(C)(C)C)c(OCCCCCCn2cc(-c3cnc(N)c4c(-c5ccc(NS(=O)(=O)C(F)F)c(O[C@@H](C)c6ccc(F)cc6)c5)nn(C)c34)cn2)c1 , can you help?
Reply: 5.00 to 6.00

Query: Bench note: what pIC50 did Cc1ncsc1-c1ccc(C(COCC(=O)N2CCC(n3cc(-c4cnc(N)c5c(-c6ccc(NS(=O)(=O)C(F)F)c(O[C@@H](C)c7ccc(F)cc7)c6)nn(C)c45)cn3)CC2)NC(=O)[C@@H]2C[C@@H](O)CN2C(=O)[C@@H](NC(=O)C2(F)CC2)C(C)(C)C)cc1 (stereo partly drawn) show?
Reply: 5.00 to 6.00

Query: Any idea what its pIC50 is? The compound is Cn1nc(-c2ccc(NS(=O)(=O)C(F)F)c(F)c2)c2c(N)ncc(-c3cnn(C4CCN(C(=O)CCC5CCN(c6cccc7c6C(=O)N(C6CCC(=O)NC6=O)C7=O)CC5)CC4)c3)c21 (stereo not drawn)
Reply: 5.00 to 6.00

###

pKd: −log10 of the molar value.
Heads up, these compounds all have pKd values measured for human RIPK3 (Homo sapiens (Human)).

Query: Look up pKd for this compound: CC#Cc1cnc(N)c2c(-c3ccc(NS(=O)(=O)C(F)F)c(O[C@@H](C)c4ccc(F)cc4)c3)nn(C)c12 [Compound 56]
Reply: < 5.00

Query: Dear colleague, I am looking for the recorded pKd of the following compound: Cn1nc(-c2ccc(NS(=O)(=O)C(F)F)cc2OCc2cccc(F)c2)c2c(N)ncc(-c3cnn(C4CCOCC4)c3)c21 [Compound 135]
Reply: < 5.00

Query: What measured pKd goes with COc1cc(-c2cnc(N)c3c(-c4ccc(NS(=O)(=O)C(F)F)c(O[C@@H](C)c5ccc(F)cc5)c4)nn(C)c23)ccn1 [Compound 27] ?
Reply: < 5.00

Query: Reported pKd, compound C[C@H](Oc1cc(-c2nn(C)c3c(-c4cnn(C5CCCC5)c4)cnc(N)c23)ccc1NS(=O)(=O)C(F)F)c1ccc(F)cc1 [Compound 30] : ____
Reply: 5.00 to 7.00

Query: Reported pKd for C[C@H](Oc1cc(-c2nn(C)c3c(-c4cnn(CC5CCCN5)c4)cnc(N)c23)ccc1NS(=O)(=O)C(F)F)c1ccc(F)cc1 (stereo partly shown) [Compound 88] : what is it?
Reply: < 5.00

Query: Suppose we examine the compound Cn1nc(-c2ccc(NS(=O)(=O)C(F)F)c(OCc3ccc(Cl)c(F)c3)c2)c2c(N)ncc(-c3cnn(C4CCOCC4)c3)c21 [Compound 132] ; what pKd value has been reported?
Reply: < 5.00

Query: Which pKd reading was recorded for the compound CC(=O)N1CCC(n2cc(-c3cnc(N)c4c(-c5ccc(NS(=O)(=O)C(F)F)c(O[C@@H](C)c6ccc(F)cc6)c5)nn(C)c34)cn2)CC1 [Compound 109] ?
Reply: < 5.00

Query: // lookup pKd for C[C@H](Oc1cc(-c2nn(C)c3c(-c4ccc(N5CCN(C)CC5)nc4)cnc(N)c23)ccc1NS(=O)(=O)C(F)F)c1ccc(F)cc1 [Compound 107]
Reply: < 5.00

Query: Give its pKd value. Item: C[C@H](Oc1cc(-c2nn(C)c3c(-c4cnn(C(C)(C)CO)c4)cnc(N)c23)ccc1NS(=O)(=O)C(F)F)c1ccc(F)cc1 [Compound 97]
Reply: < 5.00

Query: Which pKd value belongs to COCC(Oc1cc(-c2nn(C)c3c(-c4cnn(C5CCOCC5)c4)cnc(N)c23)ccc1NS(=O)(=O)C(F)F)c1ccc(F)cc1 (racemic) [Compound 102] ?
Reply: < 5.00

Query: Which pKd is reported for this compound? C[C@H](Oc1cc(-c2nn(C)c3c(-c4cc(C#N)n(C)c4)cnc(N)c23)ccc1NS(=O)(=O)C(F)F)c1ccc(F)cc1 [Compound 83]
Reply: < 5.00

Query: Tell me the measured pKd of CC(C)N(C)CC(C)n1cc(-c2cnc(N)c3c(-c4ccc(NS(=O)(=O)C(F)F)c(O[C@@H](C)c5ccc(F)cc5)c4)nn(C)c23)cn1 (stereo partly shown) [Compound 101] , please.
Reply: < 5.00

Query: Which pKd value belongs to C[C@H](Oc1cc(-c2nn(C)c3c(C#CC4CCNCC4)cnc(N)c23)ccc1NS(=O)(=O)C(F)F)c1ccc(F)cc1 [Compound 79] ?
Reply: < 5.00

###

molecular target: endogenous MLKL in U937 (Homo sapiens (Human)); assay: Degradation assay: endogenous MLKL in U937 (western blot); conditions: U937, 24 h incubation, read-out: Degradation of endogenous MLKL in U937 (DC50 cell-based assay)
Sequence (Q8NB16 whole entry): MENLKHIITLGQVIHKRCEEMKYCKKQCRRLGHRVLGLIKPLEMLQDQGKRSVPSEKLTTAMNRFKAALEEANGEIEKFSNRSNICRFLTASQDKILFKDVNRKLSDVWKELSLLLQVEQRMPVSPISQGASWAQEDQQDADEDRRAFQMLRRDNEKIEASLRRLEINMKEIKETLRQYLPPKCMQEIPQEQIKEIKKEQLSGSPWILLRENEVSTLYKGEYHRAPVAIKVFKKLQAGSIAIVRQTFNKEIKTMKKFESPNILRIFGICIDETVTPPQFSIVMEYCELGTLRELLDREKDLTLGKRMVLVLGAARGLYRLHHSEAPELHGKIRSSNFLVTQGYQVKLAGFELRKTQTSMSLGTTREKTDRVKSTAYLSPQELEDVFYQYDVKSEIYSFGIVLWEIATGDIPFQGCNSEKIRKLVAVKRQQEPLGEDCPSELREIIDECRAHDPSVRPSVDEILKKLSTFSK
ENDPOINT_LABEL: DC50

Query: Fill in: DC50 of C[C@H](Oc1cc(-c2nn(C)c3c(-c4cnn(C5CCN(CCC6CCN(c7cccc8c7C(=O)N(C7CCC(=O)NC7=O)C8=O)CC6)CC5)c4)cnc(N)c23)ccc1NS(=O)(=O)C(F)F)c1ccc(F)cc1 (stereo partly drawn) [Compound 1076] is ___
Reply: < 1000 nM

Query: Requested field: DC50. Item: C[C@H](Oc1cc(-c2nn(C)c3c(-c4cnn(C5CCN(C(=O)COc6ccc7c(c6)C(=O)N(C6CCC(=O)NC6=O)C7=O)CC5)c4)cnc(N)c23)ccc1NS(=O)(=O)C(F)F)c1ccc(F)cc1 (stereo partly drawn) [Compound 1085]
Reply: < 1000 nM

Query: Please give the measured DC50 for this compound: C[C@H](Oc1cc(-c2nn(C)c3c(-c4cnn(C5CCN(C(=O)CC(=O)N6CCN(c7cccc8c7C(=O)N(C7CCC(=O)NC7=O)C8=O)CC6)CC5)c4)cnc(N)c23)ccc1NS(=O)(=O)C(F)F)c1ccc(F)cc1 (stereo partly drawn) [Compound 1098]
Reply: < 1000 nM

Query: Reported DC50, compound C[C@H](Oc1cc(-c2nn(C)c3c(-c4cnn(C5CCN(C(=O)C6CN(c7cccc8c7C(=O)N(C7CCC(=O)NC7=O)C8=O)C6)CC5)c4)cnc(N)c23)ccc1NS(=O)(=O)C(F)F)c1ccc(F)cc1 (stereo partly drawn) [Compound 1051] : ____
Reply: 1000 to 10000 nM

Query: Look at this compound and give its reported DC50. C[C@H](Oc1cc(-c2nn(C)c3c(-c4cnn(C5CCN(C(=O)C6CC7(C6)CN(c6cccc8c6C(=O)N(C6CCC(=O)NC6=O)C8=O)C7)CC5)c4)cnc(N)c23)ccc1NS(=O)(=O)C(F)F)c1ccc(F)cc1 (stereo partly drawn) [Compound 1074]
Reply: < 1000 nM

Query: // lookup DC50 for C[C@H](Oc1cc(-c2nn(C)c3c(-c4cnn(C5CCN(C[C@H]6C[C@H](Nc7cccc8c7C(=O)N(C7CCC(=O)NC7=O)C8=O)C6)CC5)c4)cnc(N)c23)ccc1NS(=O)(=O)C(F)F)c1ccc(F)cc1 (stereo partly drawn) [Compound 1108]
Reply: 1000 to 10000 nM

Query: Item under review: C[C@H](Oc1cc(-c2nn(C)c3c(-c4cnn(C5CCN(C(=O)CC6CCN(c7cccc8c7C(=O)N(C7CCC(=O)NC7=O)C8=O)CC6)CC5)c4)cnc(N)c23)ccc1NS(=O)(=O)C(F)F)c1ccc(F)cc1 (stereo partly drawn) [Compound 1048] . Reported DC50?
Reply: 1000 to 10000 nM

Query: Please look up its DC50: C[C@H](Oc1cc(-c2nn(C)c3c(-c4cnn(C5CCC(C(=O)N6CCN(c7cccc8c7C(=O)N(C7CCC(=O)NC7=O)C8=O)CC6)N(C)C5)c4)cnc(N)c23)ccc1NS(=O)(=O)C(F)F)c1ccc(F)cc1 (stereo partly drawn) [Compound 1121]
Reply: < 1000 nM

Query: I am curious: what DC50 value has been reported for Cn1nc(-c2ccc(NS(=O)(=O)C(F)F)c(F)c2)c2c(N)ncc(-c3cnn(C4CCN(C(=O)N5CCN(c6cccc7c6C(=O)N(C6CCC(=O)NC6=O)C7=O)CC5)CC4)c3)c21 (stereo not drawn) [Compound 1131] ?
Reply: < 1000 nM

###

target: human MLKL (full length) (Homo sapiens (Human), UniProt Q8NB16); assay: KINOMEscan binding assay, human MLKL (full length); conditions: hMLKL, Table 25; read-out: MLKL (KD)
Sequence (Q8NB16 whole entry): as above
Kindly supply the reported Kd values for the records listed here.

Query: Param readout= Kd; system= human MLKL (full length) (Homo sapiens (Human), UniProt Q8NB16); entry= CCS(=O)(=O)Nc1ccc(-c2nn(C)c3c(-c4cnn(C5CCN(C(=O)CCC6CCN(c7cccc8c7C(=O)N(C7CCC(=O)NC7=O)C8=O)CC6)CC5)c4)cnc(N)c23)cc1F (centres unmarked) ; returns value.
Reply: < 10 nM

Query: Request: Kd, test system human MLKL (full length) (Homo sapiens (Human), UniProt Q8NB16), entry Cc1ncsc1-c1ccc(CNC(=O)[C@@H]2C[C@@H](O)CN2C(=O)[C@@H](NC(=O)CCCCCn2cc(-c3cnc(N)c4c(-c5ccc(NS(=O)(=O)C(F)F)c(O[C@@H](C)c6ccc(F)cc6)c5)nn(C)c34)cn2)C(C)(C)C)cc1
Reply: < 10 nM

Query: What Kd appears in the records for this molecule with human MLKL (full length) (Homo sapiens (Human), UniProt Q8NB16)? Cn1nc(-c2ccc(NS(=O)(=O)C(F)F)c(F)c2)c2c(N)ncc(-c3cnn(C4CCN(C(=O)N5CCN(c6cccc7c6C(=O)N(C6CCC(=O)NC6=O)C7=O)CC5)CC4)c3)c21 (centres unmarked)
Reply: < 10 nM

Query: For human MLKL (full length) (Homo sapiens (Human), UniProt Q8NB16), provide Kd of C[C@H](Oc1cc(-c2nn(C)c3c(-c4cnn(C5CCN(CCN6CCCC6COc6cccc7c6C(=O)N(C6CCC(=O)NC6=O)C7=O)CC5)c4)cnc(N)c23)ccc1NS(=O)(=O)C(F)F)c1ccc(F)cc1 (some centres unmarked) please.
Reply: < 10 nM

Query: Find the measured Kd: item C[C@H](Oc1cc(-c2nn(C)c3c(-c4cnn(C5CCN(C(=O)CC6CCCN(c7cccc8c7C(=O)N(C7CCC(=O)NC7=O)C8=O)C6)CC5)c4)cnc(N)c23)ccc1NS(=O)(=O)C(F)F)c1ccc(F)cc1 (some centres unmarked) , target or system human MLKL (full length) (Homo sapiens (Human), UniProt Q8NB16).
Reply: 10 to 1000 nM
